# studyTarget: T1, PmrA N196A (Klebsiella pneumoniae, UniProt W9BNR5 1-223, N196A)
# T1 sequence: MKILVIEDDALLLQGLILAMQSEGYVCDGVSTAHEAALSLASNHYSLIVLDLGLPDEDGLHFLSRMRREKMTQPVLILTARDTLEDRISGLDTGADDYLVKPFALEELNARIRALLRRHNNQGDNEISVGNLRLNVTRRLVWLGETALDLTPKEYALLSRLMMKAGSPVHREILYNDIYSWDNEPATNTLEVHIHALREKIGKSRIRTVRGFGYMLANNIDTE
# test: fluorescence polarization; BeF3-, Mg2+ (activation); FP: 10 mM sodium phosphate, 15 mM NaCl, pH 7.0, 298 K, 6 nM FAM-DNA; proteins activated with 5.3 mM BeCl2, 35 mM NaF, 7 mM MgCl2. NMR: 20 mM Tris-HCl, 100 mM Na
experimentalEndpoint: pKd
Reminder that pKd is minus the log10 of a molar concentration.

# input Query pKd for 25-bp FAM-labelled DNA (FP) (dsDNA) DNA 1: ATTTCTTAATATTATCCTAAGCAAG DNA 2: TTGCTTAGGATAATATTAAGAAATC
# output 6.40
